- measurementTarget: CRFR1 (Homo sapiens)
- protocolSummary: CRF1 antagonist effect (inhibition of CRFR1 cAMP signaling upon CRF binding)
- Format: cell-based
- Set-up: expressed in transfected cells; host or cells: COS-M6 (transiently transfected)
- assaySetup: values given in μM
outcomeMeasure: EC50

Answered cases to consult:
[
  {
    "molecule": "CCC(COC)Nc1nc(C)nc(Oc2c(C)cc(C)cc2C)c1C (stereo not drawn) [Compound T33]",
    "measurementTarget": "CRFR1 (Homo sapiens)",
    "result": "> 2 µM"
  },
  {
    "molecule": "CCC(COC)Oc1nc(C)nc(Nc2ccc(OC)cc2C)c1C (stereo not drawn) [Compound T38]",
    "measurementTarget": "CRFR1 (Homo sapiens)",
    "result": "> 2 µM"
  }
]

Any idea what EC50 was measured for CCC(COC)Oc1nc(C)nc(Nc2ccc(Cl)cc2C)c1C (stereo not drawn) [Compound T39] ? > 10 µM

====

- protocolSummary: Parallel Artificial Membrane Permeability Assay (PAMPA), kIAM on IAM.PC.DD.2 HPLC column
- Format: in vitro ADME
- assaySetup: kIAM >1 indicative of good brain permeability
Hi! Just check whether PAMPA KIAM is below 4. Below gives yes (1), equal or above gives no (0).

[
  {
    "compound": "CCC(COC)Oc1nc(C)nc(Nc2ccc(Cl)cc2C)c1C (stereo not drawn) [Compound T39]",
    "qualitativeLabel": "no (0)"
  }
]

Hello, I'm reviewing records and need to know if PAMPA KIAM of CCC(COC)Oc1nc(C)nc(Nc2ccc(F)cc2C)c1C (stereo not drawn) [Compound T48] is below 4. Could you check? yes (1)

Now try CCC(COC)Oc1nc(C)nc(OC(CC)COC)c1C (stereo not drawn) [Compound T40] . no (0)

Please give the result for CCC(COC)Nc1nc(C)nc(Oc2ccc(OC)cc2C)c1C (stereo not drawn) [Compound T36] too. yes (1)

Cool, now CCC(COC)Oc1nc(C)nc(Nc2ccc(F)cc2F)c1C (stereo not drawn) [Compound T45] yes (1)

====

This listing pairs molecules with measured PAMPA KIAM.
- protocolSummary: Parallel Artificial Membrane Permeability Assay (PAMPA), kIAM on IAM.PC.DD.2 HPLC column
- Type: in vitro ADME
- assaySetup: kIAM >1 indicative of good brain permeability
Lab note: write the figure by itself, no unit.

Some molecules with known PAMPA KIAM results, for comparison:
[
  {
    "molecule": "CCC(COC)Oc1nc(C)nc(Nc2ccc(F)cc2C(F)(F)F)c1C (centres unmarked)",
    "PAMPA KIAM": 2.90
  },
  {
    "molecule": "CCC(COC)Oc1nc(C)nc(Nc2ccc(OC)cc2C)c1C (centres unmarked)",
    "PAMPA KIAM": 2.02
  }
]

For the molecule shown here, CCC(COC)Nc1nc(C)nc(Oc2c(C)cc(C)cc2C)c1C (centres unmarked) , give the reported PAMPA KIAM. 6.34

Input CCC(COC)Nc1nc(C)nc(Oc2ccc(Cl)cc2C)c1C (centres unmarked) 5.79

Try this molecule next: CCC(COC)Oc1nc(C)nc(Nc2c(F)cc(F)cc2F)c1C (centres unmarked) 2.00

====

Target protein (sequence): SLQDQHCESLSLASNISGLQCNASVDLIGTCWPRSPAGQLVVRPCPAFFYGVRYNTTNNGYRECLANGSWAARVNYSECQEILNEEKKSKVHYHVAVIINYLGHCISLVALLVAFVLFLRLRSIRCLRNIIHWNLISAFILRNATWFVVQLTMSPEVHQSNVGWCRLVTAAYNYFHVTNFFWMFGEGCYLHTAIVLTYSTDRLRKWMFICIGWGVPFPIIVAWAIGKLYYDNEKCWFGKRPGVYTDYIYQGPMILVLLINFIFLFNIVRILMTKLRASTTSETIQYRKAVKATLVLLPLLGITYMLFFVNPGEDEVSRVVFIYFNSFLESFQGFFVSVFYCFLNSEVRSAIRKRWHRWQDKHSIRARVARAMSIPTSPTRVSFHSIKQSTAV
outcomeMeasure: Ki (nM)
Answer with a number only, understood to be in nM.

Quick check: Ki of CCC(COC)Oc1nc(C)nc(Nc2c(C)cc(C)cc2C)c1C (stereo not shown) ? 400

Hello, the source for this data is patent US11077108B2, in case you need it.
